# Test system: pigweed
# METHOD DESCRIPTION: Test B pre/postemergence pigweed
# Type: in vivo, Amaranthus retroflexus
# RUN PARAMETERS: Preemergence, Rate 500 g/ha; scale of 0 to 10 where 0 is no effect and 10 is complete control
ASSAY ENDPOINT: Redroot pigweed plant response rating
No unit in the answer, please; the number alone is enough.

Lookup result for `CC(C)N(C(=O)n1oc(=O)n(CCl)c1=O)c1ccc(F)cc1` ; measured Redroot pigweed plant response rating: 0

Lookup result for `Cc1c(-n2c(=O)on(C(=O)N(c3ccccc3)C(C)C)c2=O)ccc2ccccc12` ; measured Redroot pigweed plant response rating: 0

Lookup result for `CC(C)N(C(=O)n1oc(=O)n(-c2ccc3ccccc3c2)c1=O)c1ccc(F)cc1` ; measured Redroot pigweed plant response rating: 0

Lookup result for `CC(C)N(C(=O)n1oc(=O)n(CCCCF)c1=O)c1ccc(F)cc1F` ; measured Redroot pigweed plant response rating: 10

Reference source for all entries: patent US6737383B1
